In this section we review reported pIC50 values for a set of molecules.
assayedTarget: genotype 3a (VRL-69) NS5bΔ21 polymerase (Hepatitis C virus genotype 3a, UniProt Q81258)
Sequence (Q81258 whole entry, looked up, stated change not applied): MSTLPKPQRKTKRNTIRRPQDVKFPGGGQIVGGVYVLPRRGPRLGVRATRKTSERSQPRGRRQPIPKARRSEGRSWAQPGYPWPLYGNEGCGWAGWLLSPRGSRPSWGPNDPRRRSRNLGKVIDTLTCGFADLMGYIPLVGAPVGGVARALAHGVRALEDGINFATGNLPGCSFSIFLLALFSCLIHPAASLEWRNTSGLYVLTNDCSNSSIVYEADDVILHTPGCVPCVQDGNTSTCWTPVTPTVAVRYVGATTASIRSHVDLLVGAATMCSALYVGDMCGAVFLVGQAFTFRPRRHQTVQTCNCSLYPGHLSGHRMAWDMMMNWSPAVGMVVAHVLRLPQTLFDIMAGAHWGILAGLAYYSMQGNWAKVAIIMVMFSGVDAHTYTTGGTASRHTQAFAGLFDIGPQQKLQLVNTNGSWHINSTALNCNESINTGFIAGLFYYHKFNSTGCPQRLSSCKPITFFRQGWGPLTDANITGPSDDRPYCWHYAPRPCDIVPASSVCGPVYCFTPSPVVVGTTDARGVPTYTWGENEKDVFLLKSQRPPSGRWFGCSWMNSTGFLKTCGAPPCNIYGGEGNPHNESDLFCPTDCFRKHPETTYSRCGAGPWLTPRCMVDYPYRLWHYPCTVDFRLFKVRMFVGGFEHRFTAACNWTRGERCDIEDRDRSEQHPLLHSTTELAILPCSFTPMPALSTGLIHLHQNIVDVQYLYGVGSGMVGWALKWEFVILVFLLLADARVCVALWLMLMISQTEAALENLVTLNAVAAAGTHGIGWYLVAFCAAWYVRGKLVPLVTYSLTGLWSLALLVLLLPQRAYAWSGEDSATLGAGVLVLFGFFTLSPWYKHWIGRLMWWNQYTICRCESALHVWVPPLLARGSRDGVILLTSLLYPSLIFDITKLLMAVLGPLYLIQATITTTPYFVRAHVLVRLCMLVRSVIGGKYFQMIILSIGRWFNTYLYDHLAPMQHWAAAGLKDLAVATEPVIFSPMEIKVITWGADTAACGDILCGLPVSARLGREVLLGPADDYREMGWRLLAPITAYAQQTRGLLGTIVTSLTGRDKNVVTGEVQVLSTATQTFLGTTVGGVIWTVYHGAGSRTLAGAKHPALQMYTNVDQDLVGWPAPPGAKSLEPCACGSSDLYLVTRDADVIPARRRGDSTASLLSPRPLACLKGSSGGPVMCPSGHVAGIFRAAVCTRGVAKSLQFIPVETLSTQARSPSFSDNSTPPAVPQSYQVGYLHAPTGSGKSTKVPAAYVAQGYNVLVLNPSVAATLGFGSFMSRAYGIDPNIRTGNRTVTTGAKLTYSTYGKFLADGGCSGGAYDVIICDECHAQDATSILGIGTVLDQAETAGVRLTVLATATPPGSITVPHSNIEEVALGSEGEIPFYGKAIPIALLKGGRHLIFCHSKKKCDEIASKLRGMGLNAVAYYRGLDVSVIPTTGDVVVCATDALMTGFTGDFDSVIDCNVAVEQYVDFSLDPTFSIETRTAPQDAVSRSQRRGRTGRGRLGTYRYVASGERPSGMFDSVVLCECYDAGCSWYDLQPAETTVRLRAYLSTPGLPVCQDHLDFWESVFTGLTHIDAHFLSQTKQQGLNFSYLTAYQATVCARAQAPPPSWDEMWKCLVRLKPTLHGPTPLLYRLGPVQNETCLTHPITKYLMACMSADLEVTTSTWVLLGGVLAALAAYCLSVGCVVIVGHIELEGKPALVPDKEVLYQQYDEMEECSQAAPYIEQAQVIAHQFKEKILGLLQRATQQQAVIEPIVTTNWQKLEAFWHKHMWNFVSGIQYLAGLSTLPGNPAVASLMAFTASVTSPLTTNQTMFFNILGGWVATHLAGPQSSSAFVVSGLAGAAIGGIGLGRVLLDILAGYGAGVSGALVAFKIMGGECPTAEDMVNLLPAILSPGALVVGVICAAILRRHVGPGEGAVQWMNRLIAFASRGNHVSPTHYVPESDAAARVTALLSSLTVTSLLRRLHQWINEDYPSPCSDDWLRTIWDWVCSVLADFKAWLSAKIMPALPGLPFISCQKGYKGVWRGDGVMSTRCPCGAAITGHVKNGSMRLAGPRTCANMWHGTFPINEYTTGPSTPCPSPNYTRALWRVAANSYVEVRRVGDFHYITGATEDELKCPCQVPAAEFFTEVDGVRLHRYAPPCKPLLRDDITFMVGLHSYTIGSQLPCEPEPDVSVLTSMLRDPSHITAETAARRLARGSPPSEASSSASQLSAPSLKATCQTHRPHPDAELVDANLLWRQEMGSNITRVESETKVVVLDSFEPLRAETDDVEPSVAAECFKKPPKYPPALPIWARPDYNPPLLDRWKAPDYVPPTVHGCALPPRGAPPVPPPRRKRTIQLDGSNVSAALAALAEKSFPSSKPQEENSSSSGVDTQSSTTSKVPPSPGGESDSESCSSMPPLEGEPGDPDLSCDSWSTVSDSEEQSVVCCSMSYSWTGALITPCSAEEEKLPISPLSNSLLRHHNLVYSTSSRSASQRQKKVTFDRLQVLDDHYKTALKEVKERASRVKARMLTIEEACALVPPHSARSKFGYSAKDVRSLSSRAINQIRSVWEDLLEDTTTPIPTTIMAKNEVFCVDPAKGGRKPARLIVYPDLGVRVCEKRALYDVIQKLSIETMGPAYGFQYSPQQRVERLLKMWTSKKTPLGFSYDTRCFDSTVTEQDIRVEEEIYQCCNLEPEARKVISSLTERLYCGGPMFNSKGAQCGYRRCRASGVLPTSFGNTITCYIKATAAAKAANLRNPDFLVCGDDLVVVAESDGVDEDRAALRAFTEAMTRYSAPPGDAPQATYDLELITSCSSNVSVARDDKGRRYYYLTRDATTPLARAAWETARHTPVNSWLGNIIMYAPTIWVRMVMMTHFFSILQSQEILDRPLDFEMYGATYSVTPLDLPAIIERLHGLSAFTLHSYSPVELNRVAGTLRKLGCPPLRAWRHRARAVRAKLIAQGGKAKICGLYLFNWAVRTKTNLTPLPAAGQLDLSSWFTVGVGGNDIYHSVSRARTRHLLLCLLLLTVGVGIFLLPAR
experimentSummary: HCV polymerase inhibition assay, genotype 3a
Type: biochemical, HCV genotype 3a (VRL-69)
statedConditions: genotype 3a; read-out: 3a NS5b polymerase IC50
pIC50: −log10 of the molar value.
parameter: pIC50

>  <compoundString>
CNC(=O)c1c2cc(C3CC3)c(N(CCN3CCOCC3)S(C)(=O)=O)cc2nn1-c1ccc(Oc2ccc(F)cc2)cc1

>  <assayedTarget>
genotype 3a (VRL-69) NS5bΔ21 polymerase (Hepatitis C virus genotype 3a, UniProt Q81258)

>  <reading>
7.40

$$$$
>  <compoundString>
CCOC(=O)CCC(=O)NCCCN(c1cc2nn(-c3ccc(Br)cc3)c(C(=O)NC)c2cc1C1CC1)S(C)(=O)=O

>  <assayedTarget>
genotype 3a (VRL-69) NS5bΔ21 polymerase (Hepatitis C virus genotype 3a, UniProt Q81258)

>  <reading>
7.40

$$$$
>  <compoundString>
CNC(=O)c1c2cc(C3CC3)c(N(CCCNC(=O)c3ccccc3)S(C)(=O)=O)cc2nn1-c1ccc(Br)cc1

>  <assayedTarget>
genotype 3a (VRL-69) NS5bΔ21 polymerase (Hepatitis C virus genotype 3a, UniProt Q81258)

>  <reading>
7.52

$$$$
>  <compoundString>
CCN(c1cc2nn(-c3ccc(Oc4ccc(F)cc4)nc3)c(C(=O)NC)c2cc1C1CC1)S(C)(=O)=O

>  <assayedTarget>
genotype 3a (VRL-69) NS5bΔ21 polymerase (Hepatitis C virus genotype 3a, UniProt Q81258)

>  <reading>
6.09

$$$$
>  <compoundString>
CNC(=O)c1c2cc(C3CC3)c(N(C)S(C)(=O)=O)cc2nn1-c1ccc(Br)cc1

>  <assayedTarget>
genotype 3a (VRL-69) NS5bΔ21 polymerase (Hepatitis C virus genotype 3a, UniProt Q81258)

>  <reading>
7.70

$$$$
>  <compoundString>
CNC(=O)c1c2cc(C3CC3)c(N(CCCNC(=O)c3cccnc3)S(C)(=O)=O)cc2nn1-c1ccc(Br)cc1

>  <assayedTarget>
genotype 3a (VRL-69) NS5bΔ21 polymerase (Hepatitis C virus genotype 3a, UniProt Q81258)

>  <reading>
7.70

$$$$
